The molecules below have reported IC50 for rat ACC1 (Rattus norvegicus, UniProt P11497).

Reference set, count: 4
{"molecule": "O=C1CC2(CCN(C(=O)c3cc(-c4ccccc4Cl)nc4ccccc34)CC2)Oc2ccccc21 [12d]", "study system": "rat ACC1 (Rattus norvegicus, UniProt P11497)", "IC50": "> 1 µM"}
{"molecule": "O=C1CC2(CCN(C(=O)c3cc(Cl)nc4ccccc34)CC2)Oc2ccccc21 [12f]", "study system": "rat ACC1 (Rattus norvegicus, UniProt P11497)", "IC50": "> 1 µM"}
{"molecule": "Cc1ccccc1-c1cc(C(=O)N2CCC3(CC2)CC(=O)c2ccccc2O3)c2ccccc2n1 [12c]", "study system": "rat ACC1 (Rattus norvegicus, UniProt P11497)", "IC50": "> 1 µM"}
{"molecule": "O=C1CC2(CCN(C(=O)c3cc(N4CCOCC4)nc4ccccc34)CC2)Oc2ccccc21 [12g]", "study system": "rat ACC1 (Rattus norvegicus, UniProt P11497)", "IC50": "> 1 µM"}

With those in mind, consider the next molecule.
Q) # get_value(readout= IC50, system= rat ACC1 (Rattus norvegicus, UniProt P11497)) for COc1ccc(-c2cc(C(=O)N3CCC4(CC3)CC(=O)c3ccccc3O4)c3ccccc3n2)cc1 [12a]
A) 0.6 µM

###

The compounds below have reported pIC50 for UniProtKB D3ZBE2.
Sequence (D3ZBE2 17-2459): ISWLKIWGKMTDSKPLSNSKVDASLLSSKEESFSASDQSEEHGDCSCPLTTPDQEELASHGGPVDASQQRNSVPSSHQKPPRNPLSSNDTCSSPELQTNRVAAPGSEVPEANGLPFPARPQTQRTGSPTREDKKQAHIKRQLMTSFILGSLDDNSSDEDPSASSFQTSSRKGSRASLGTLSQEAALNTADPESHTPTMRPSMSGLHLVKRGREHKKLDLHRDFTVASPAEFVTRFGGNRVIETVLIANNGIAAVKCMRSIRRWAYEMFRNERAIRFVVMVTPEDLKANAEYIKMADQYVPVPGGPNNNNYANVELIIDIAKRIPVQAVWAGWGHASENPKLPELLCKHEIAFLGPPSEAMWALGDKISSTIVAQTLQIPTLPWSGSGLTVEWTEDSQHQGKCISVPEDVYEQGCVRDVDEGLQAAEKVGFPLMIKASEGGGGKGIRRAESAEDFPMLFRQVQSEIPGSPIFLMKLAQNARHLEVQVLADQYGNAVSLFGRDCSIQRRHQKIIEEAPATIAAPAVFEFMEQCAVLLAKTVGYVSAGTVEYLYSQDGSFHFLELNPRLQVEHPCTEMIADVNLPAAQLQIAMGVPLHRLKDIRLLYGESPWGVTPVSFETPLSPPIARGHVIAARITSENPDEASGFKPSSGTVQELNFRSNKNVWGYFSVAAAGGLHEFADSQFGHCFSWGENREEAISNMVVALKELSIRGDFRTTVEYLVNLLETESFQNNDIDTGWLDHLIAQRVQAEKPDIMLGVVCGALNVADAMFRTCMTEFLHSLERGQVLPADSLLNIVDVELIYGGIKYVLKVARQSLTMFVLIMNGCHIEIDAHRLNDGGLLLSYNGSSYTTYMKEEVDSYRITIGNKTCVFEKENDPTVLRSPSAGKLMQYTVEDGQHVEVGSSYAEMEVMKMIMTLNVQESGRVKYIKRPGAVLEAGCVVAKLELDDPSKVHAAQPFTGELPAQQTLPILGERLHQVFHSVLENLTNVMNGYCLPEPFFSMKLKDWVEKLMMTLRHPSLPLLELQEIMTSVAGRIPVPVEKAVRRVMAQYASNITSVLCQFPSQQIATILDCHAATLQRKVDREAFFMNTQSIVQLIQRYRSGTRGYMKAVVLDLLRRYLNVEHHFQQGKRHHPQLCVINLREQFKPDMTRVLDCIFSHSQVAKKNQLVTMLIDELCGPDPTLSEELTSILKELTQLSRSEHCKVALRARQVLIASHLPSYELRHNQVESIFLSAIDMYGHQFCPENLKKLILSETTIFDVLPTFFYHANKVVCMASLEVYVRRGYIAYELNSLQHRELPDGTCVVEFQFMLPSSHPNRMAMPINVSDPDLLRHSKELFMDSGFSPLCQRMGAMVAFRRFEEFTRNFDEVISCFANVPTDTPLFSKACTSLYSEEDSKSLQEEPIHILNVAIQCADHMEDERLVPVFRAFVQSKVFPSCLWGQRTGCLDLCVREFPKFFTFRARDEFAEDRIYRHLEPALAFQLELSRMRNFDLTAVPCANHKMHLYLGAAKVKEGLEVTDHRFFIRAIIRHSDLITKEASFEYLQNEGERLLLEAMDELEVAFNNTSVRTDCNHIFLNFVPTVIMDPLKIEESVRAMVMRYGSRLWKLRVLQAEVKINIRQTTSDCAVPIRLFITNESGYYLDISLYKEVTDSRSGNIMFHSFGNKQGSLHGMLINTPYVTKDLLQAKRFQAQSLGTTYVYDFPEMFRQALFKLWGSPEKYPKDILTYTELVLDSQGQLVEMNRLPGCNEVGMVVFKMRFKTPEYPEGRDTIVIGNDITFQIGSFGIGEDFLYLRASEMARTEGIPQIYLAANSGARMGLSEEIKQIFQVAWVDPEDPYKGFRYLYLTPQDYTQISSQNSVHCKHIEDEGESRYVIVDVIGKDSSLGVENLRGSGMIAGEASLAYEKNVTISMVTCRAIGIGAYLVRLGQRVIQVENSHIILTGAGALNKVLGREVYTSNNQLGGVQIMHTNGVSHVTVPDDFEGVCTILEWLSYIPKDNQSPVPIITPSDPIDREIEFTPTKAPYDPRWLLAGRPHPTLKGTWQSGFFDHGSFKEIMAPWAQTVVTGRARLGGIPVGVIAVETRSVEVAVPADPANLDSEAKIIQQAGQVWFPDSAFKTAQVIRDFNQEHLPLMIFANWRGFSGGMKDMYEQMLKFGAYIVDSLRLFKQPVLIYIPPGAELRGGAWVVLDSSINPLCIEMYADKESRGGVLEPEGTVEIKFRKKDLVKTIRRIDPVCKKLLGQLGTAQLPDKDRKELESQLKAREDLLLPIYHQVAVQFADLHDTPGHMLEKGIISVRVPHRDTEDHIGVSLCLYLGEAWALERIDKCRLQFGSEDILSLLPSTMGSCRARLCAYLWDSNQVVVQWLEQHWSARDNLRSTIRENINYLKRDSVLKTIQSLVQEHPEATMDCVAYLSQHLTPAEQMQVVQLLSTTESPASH
pIC50: −log10 of the molar value.
measurement kind: pIC50

{"compound": "O=C(c1c2ccccc2cc2ccccc12)N1CCC(N2CCC[C@@H](C(=O)N3CCOCC3)C2)CC1 [CP-640186, reference compound]", "pIC50": 6.73}
{"compound": "COc1ccc(-c2cc(C(=O)N3CCC4(CC3)CC(=O)c3ccccc3O4)c3ccccc3n2)cc1OC [12b]", "pIC50": 6.09}
{"compound": "COc1ccc(-c2cc(C(=O)N3CCC(N4CCC[C@@H](C(=O)N5CCCC5)C4)CC3)c3ccccc3n2)cc1 [7e]", "pIC50": 6.42}
{"compound": "CCN(CC)C(=O)[C@@H]1CCCN(C2CCN(C(=O)c3cc(-c4ccc(OC)cc4)nc4ccccc34)CC2)C1 [7c]", "pIC50": 6.69}
{"compound": "O=C1CC2(CCN(C(=O)c3cc(-c4ccccc4Cl)nc4ccccc34)CC2)Oc2ccccc21 [12d]", "pIC50": 6.03}

[P] COc1ccc(-c2cc(C(=O)N3CCC4(CC3)CC(=O)c3ccccc3O4)c3ccccc3n2)cc1 [12a]
[Q] COc1ccc(-c2cc(C(=O)N3CCC(N4CCC[C@@H](C(=O)N(C)Cc5ccccc5)C4)CC3)c3ccccc3n2)cc1 [7b]
Q) Which of these two has the smaller recorded pIC50: P or Q ? Which one? Tell me its label.
A) P
(P: 6.19, Q: 6.44)

###

Molecular target: UniProt P11497
measurement kind: IC50 (nM)

{"compound": "CCN(CC)C(=O)[C@@H]1CCCN(C2CCN(C(=O)c3cc(-c4ccc(OC)cc4)nc4ccccc34)CC2)C1 [7c]", "test value": 940}
{"compound": "COc1ccc(-c2cc(C(=O)N3CCC(N4CCC[C@@H](C(=O)N(C)Cc5ccccc5)C4)CC3)c3ccccc3n2)cc1 [7b]", "test value": 750}
{"compound": "COc1ccc(-c2cc(C(=O)N3CCC4(CC3)CC(=O)c3ccccc3O4)c3ccccc3n2)cc1OC [12b]", "test value": 760}

###

measurement kind: melting point

Reference set, count: 3
{"molecule": "CCN(CC)C(=O)[C@@H]1CCCN(C2CCN(C(=O)c3cc(-c4ccc(OC)cc4)nc4ccccc34)CC2)C1", "test value": "101 to 102 °C"}
{"molecule": "O=C(c1cc(-c2ccccc2)nc2ccccc12)N1CCC(N2CCC[C@@H](C(=O)N3CCOCC3)C2)CC1", "test value": "92 to 93 °C"}
{"molecule": "O=C(c1cc(-c2ccc(Cl)cc2)nc2ccccc12)N1CCC(N2CCC[C@@H](C(=O)N3CCOCC3)C2)CC1", "test value": "87 to 89 °C"}

Q) Sample O=C1CC2(CCN(C(=O)c3cc(N4CCOCC4)nc4ccccc34)CC2)Oc2ccccc21 [12g] — what was its melting point?
A) 138 to 140 °C

Q) Sample COc1ccc(-c2cc(C(=O)N3CCC(N4CCC[C@@H](C(=O)N(C)Cc5ccccc5)C4)CC3)c3ccccc3n2)cc1 — what was its melting point?
A) 90 to 92 °C

Q) Sample COc1ccc(-c2cc(C(=O)N3CCC(N4CCC[C@@H](C(=O)N5CCN(C)CC5)C4)CC3)c3ccccc3n2)cc1 — what was its melting point?
A) 108 to 110 °C

Q) Sample COc1ccc(-c2cc(C(=O)N3CCC(N4CCC[C@@H](C(=O)N5CCCCC5)C4)CC3)c3ccccc3n2)cc1 — what was its melting point?
A) 89 to 91 °C

Values from paper PMC6332354
